All values here come from the supplement of paper PMC10266784.

B1: library; numbered along this chain (parent)
chain: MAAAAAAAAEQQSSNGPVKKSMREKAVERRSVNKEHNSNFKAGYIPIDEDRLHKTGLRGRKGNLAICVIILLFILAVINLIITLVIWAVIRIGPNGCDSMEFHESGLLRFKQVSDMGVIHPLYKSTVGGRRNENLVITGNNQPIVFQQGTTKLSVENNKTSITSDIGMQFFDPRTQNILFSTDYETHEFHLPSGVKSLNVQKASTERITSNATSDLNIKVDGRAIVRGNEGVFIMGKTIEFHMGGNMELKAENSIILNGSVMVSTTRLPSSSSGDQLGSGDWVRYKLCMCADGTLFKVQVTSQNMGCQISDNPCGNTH

variants of: B1; test: SGCB cell-surface expression functional score (HA stain, bin4 vs bin1, normalised to synonymous) (log10 ratio); higher = more cell-surface SGCB (functional)
Record form. Attribute: SGCB cell-surface expression functional score (log10). Fill in for each entry.
Give bare numbers.

Worked cases, answers included:
Asked: Sample L277C — what was its SGCB cell-surface expression functional score (log10)?
Given back: -1.31

Asked: Sample R29L — what was its SGCB cell-surface expression functional score (log10)?
Given back: -0.3

Asked: Sample G306N — what was its SGCB cell-surface expression functional score (log10)?
Given back: -0.83

Asked: Sample R91L — what was its SGCB cell-surface expression functional score (log10)?
Given back: -1.93

Asked: Sample H242I — what was its SGCB cell-surface expression functional score (log10)?
Given back: 0.92

Asked: Sample P173Q — what was its SGCB cell-surface expression functional score (log10)?
Given back: 0.62

Please go through the list and note SGCB cell-surface expression functional score (log10) for each variant.
1. C67G
2. F233W
3. S260L
4. S273K
5. A5S
6. E133C
7. P192H
8. C290N

Given back:
[0.18, 0.09, -0.22, -0.55, 0.1, 0.05, -1.15, -0.11]

Please go through the list and note SGCB cell-surface expression functional score (log10) for each variant.
1. K250G
2. F102A
3. K237H
4. M243D
5. N79S
6. G106T
7. P143N

Given back:
1. 0.55
2. -1.01
3. -0.04
4. -0.38
5. -0.15
6. -0.86
7. -0.09
